# assay.system: T1, human CD20 antigen (human, UniProt P11836 1-297)
# T1 sequence (looked up): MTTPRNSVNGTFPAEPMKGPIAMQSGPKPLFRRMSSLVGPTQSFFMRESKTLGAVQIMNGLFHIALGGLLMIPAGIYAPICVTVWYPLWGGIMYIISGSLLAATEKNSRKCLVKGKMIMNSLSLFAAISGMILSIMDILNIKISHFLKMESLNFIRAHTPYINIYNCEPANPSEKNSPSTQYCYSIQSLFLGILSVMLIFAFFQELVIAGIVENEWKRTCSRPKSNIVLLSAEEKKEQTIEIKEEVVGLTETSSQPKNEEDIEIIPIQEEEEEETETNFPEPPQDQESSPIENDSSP
# procedure.summary: cell-based or functional assay
quantity.measured: Apoptosis (5 ug/ml), Wil2-NS

humanized 1K1791 antibody fv (FraL x VenH) (antibody, V domains shown, Kappa, gamma 1 construct; also called hz1791 fv; Fv010) VH: QIQLVQSGPELKKPGASVKISCKASGYTFTNFGVNWVKQAPGKGLKWMGWINTYTGEPSYADDFKGRFAFSLDASVSTAYLQISSLKAEDTSTYFCTRRTNYYGTSYYYAMDYWGQGTTVTVSS VL: STVMTQSPSFLSASVGDRVTITCKASQSVSNDVAWYQQKPGQSPKVLIYFASNRYTGVPDRFSGSGYGTDFTLTISSLQAEDVAVYFCQQDYSSPLTFGAGTKLEIK    49 relative, m2B8 = 100
humanized 1K1791 antibody ss (SdrL x SdrH) (antibody, V domains shown, Kappa, gamma 1 construct; also called hz1791 ss; Ss020) VH: QIQLVQSGSELKKPGASVKVSCKASGYTFTNFGVNWVRQAPGKGLKWMGWINTYTGEPSYAQGFTGRFAFSLDASVSTAYLQISSLKAEDTATYFCTRRTNYYGTSYYYAMDYWGQGTTVTVSS VL: STVMTQSPDSLAVSLGERATINCKSSQSNSNDVAWYQQKPGQSPKVLIYFASNRYSGVPDRFSGSGYGTDFTLTISSLQAEDVAVYFCQQDYSSPLTFGAGTKLEIK    108 relative, m2B8 = 100
humanized 1K1791 antibody ff (FraL x FraH) (antibody, V domains shown, Kappa, gamma 1 construct; also called hz1791 ff; Ff019) VH: QIQLVQSGSELKKPGASVKVSCKASGYTFTNFGVNWVKQAPGKGLKWMGWINTYTGEPSYADDFKGRFAFSLDASASTAYLQISSLKAEDMATYFCTRRTNYYGTSYYYAMDYWGQGTTVTVSS VL: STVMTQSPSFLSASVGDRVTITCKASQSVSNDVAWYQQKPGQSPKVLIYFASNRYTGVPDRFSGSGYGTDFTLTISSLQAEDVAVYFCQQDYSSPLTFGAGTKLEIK    49 relative, m2B8 = 100

Now let's try a different one.
The recorded Apoptosis (5 ug/ml), Wil2-NS for entry humanized 1K1791 antibody sf (SdrL x FraH) (antibody, V domains shown, Kappa, gamma 1 construct; also called hz1791 sf; Sf043) VH: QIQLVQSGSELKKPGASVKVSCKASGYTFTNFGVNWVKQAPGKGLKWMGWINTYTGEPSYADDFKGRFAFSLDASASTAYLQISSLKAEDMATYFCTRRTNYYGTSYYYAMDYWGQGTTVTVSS VL: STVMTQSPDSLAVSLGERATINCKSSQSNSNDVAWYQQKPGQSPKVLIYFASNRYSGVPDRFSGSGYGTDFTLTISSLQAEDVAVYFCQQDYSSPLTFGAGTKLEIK equals 100 relative, m2B8 = 100
